- System: SK-MEL-28
- PROCEDURE_TEXT: NCI tumour cell line growth inhibition, 48 h
The source made the active and inactive calls. No stated cut-off is given here; in the data, active = GI50 up to about 1.1 µM and inactive = higher.
MEASURE: GI50

COc1cc(C2c3cc4c(cc3OC(NNS(=O)(=O)c3ccc(C)cc3)C2C)OCO4)cc(OC)c1OC (stereo unspecified) ... 2.94 µM (inactive)
CC1(C)CC(C2CC(C)(C)CC(C)(C)[C@H]2O)[C@@H](O)C(C)(C)C1 (stereo partly specified) ... > 100 µM (inactive)
COC(=O)[C@H](C)N1C(=O)N[C@@H](C(C)C)C1=O ... > 100 µM (inactive)
C1CCN(CCC2CCCCN2)CC1 (stereo unspecified) ... > 100 µM (inactive)
CC(=O)NNc1nc(C)c(C(=O)/C=C/c2ccc(N(C)C)cc2)s1 ... > 100 µM (inactive)
Nc1ccc(S(=O)(=O)c2ccc(NCN3C(=O)NC(=O)C(=O)C3=O)cc2)cc1 ... > 100 µM (inactive)
CCOC(=O)c1c(Cl)nc2ccccc2c1N=[N+]=[N-] ... 52.4 µM (inactive)
O=c1c2ccccc2nc(-c2cccc([N+](=O)[O-])c2)n1O ... > 100 µM (inactive)
Cc1ccc(-c2n[nH]c(=O)n2N)cc1 ... > 100 µM (inactive)
c1ccc(CN2CCC(=NN3CCCCC3)CC2)cc1 ... > 100 µM (inactive)

Please examine the following record next.
Looking up CCOC(=O)[C@H]1CSC[C@@H](C(=O)OC)N1 , I found its GI50 recorded as > 100 µM (inactive)
